Tested on: LU-01-0015 xenotransplantation (PDX) from lung cancer patients
experimental_details: In vivo efficacy, LU-01-0015 xenotransplantation (PDX) from lung cancer patients
Parameters: species or system BALB/c nude mice
assay_conditions: 9 days; 25 mg/kg orally everyday
parameter_measured: Tumor volume (mm^3)
Report the figure in mm^3 without appending any unit label.

Here are 3 molecules together with their reported answers.
Given item C[C@@H](Oc1cc(-c2cnn(C3CCNCC3)c2)cnc1N)c1c(Cl)ccc(F)c1Cl [Crizotinib, reference compound] , the value recorded as its Tumor volume is 311

Given item COc1cc(N2CCC(N3CCN(C)CC3)CC2)ccc1Nc1ncc(Cl)c(Nc2ccccc2P(C)(C)=O)n1 [AP26113, reference compound] , the value recorded as its Tumor volume is 162

Given item COc1cc(N2CCC3(CCN(C)CC3)CC2)ccc1Nc1ncc(Cl)c(Nc2ccccc2P(C)(C)=O)n1 , the value recorded as its Tumor volume is 82

Moving on to the next molecule.
Given item COc1cc(N2CCC3(CCN(C)CC3)CC2)ccc1Nc1ncc(Cl)c(Nc2ccccc2P(C)(C)=S)n1 , the value recorded as its Tumor volume is 90

###

Test system: LU-01-0015 xenotransplantation (PDX) from lung cancer patients
experimental_details: In vivo efficacy, LU-01-0015 xenotransplantation (PDX) from lung cancer patients
Set-up: species or system BALB/c nude mice
assay_conditions: 9 days; 25 mg/kg orally everyday
molecules and their reported Tumor volume
Report the figure in mm^3 without appending any unit label.

Here are 2 molecules together with their reported answers.
Given item COc1cc(N2CCC3(CCN(C)CC3)CC2)c(Cl)cc1Nc1ncc(Cl)c(Nc2ccccc2P(C)(C)=O)n1 , the value recorded as its Tumor volume is 90

Given item COc1cc(N2CCC3(CCN(C)CC3)CC2)ccc1Nc1ncc(Cl)c(Nc2ccc(F)cc2P(C)(C)=O)n1 , the value recorded as its Tumor volume is 84

***
Given item COc1cc(N2CCC3(CC2)CN(C)C3)ccc1Nc1ncc(Cl)c(Nc2ccccc2P(C)(C)=O)n1 , the value recorded as its Tumor volume is 172

Given item COc1cc(C2CCC3(CC2)CCN(C)CC3)ccc1Nc1ncc(Cl)c(Nc2ccccc2P(C)(C)=O)n1 , the value recorded as its Tumor volume is 68

###

compounds and their reported pIC50
assay_target: ALK C1156Y (Homo sapiens, UniProt Q9UM73, C1156Y)
Sequence (Q9UM73 19-1620 C1156Y): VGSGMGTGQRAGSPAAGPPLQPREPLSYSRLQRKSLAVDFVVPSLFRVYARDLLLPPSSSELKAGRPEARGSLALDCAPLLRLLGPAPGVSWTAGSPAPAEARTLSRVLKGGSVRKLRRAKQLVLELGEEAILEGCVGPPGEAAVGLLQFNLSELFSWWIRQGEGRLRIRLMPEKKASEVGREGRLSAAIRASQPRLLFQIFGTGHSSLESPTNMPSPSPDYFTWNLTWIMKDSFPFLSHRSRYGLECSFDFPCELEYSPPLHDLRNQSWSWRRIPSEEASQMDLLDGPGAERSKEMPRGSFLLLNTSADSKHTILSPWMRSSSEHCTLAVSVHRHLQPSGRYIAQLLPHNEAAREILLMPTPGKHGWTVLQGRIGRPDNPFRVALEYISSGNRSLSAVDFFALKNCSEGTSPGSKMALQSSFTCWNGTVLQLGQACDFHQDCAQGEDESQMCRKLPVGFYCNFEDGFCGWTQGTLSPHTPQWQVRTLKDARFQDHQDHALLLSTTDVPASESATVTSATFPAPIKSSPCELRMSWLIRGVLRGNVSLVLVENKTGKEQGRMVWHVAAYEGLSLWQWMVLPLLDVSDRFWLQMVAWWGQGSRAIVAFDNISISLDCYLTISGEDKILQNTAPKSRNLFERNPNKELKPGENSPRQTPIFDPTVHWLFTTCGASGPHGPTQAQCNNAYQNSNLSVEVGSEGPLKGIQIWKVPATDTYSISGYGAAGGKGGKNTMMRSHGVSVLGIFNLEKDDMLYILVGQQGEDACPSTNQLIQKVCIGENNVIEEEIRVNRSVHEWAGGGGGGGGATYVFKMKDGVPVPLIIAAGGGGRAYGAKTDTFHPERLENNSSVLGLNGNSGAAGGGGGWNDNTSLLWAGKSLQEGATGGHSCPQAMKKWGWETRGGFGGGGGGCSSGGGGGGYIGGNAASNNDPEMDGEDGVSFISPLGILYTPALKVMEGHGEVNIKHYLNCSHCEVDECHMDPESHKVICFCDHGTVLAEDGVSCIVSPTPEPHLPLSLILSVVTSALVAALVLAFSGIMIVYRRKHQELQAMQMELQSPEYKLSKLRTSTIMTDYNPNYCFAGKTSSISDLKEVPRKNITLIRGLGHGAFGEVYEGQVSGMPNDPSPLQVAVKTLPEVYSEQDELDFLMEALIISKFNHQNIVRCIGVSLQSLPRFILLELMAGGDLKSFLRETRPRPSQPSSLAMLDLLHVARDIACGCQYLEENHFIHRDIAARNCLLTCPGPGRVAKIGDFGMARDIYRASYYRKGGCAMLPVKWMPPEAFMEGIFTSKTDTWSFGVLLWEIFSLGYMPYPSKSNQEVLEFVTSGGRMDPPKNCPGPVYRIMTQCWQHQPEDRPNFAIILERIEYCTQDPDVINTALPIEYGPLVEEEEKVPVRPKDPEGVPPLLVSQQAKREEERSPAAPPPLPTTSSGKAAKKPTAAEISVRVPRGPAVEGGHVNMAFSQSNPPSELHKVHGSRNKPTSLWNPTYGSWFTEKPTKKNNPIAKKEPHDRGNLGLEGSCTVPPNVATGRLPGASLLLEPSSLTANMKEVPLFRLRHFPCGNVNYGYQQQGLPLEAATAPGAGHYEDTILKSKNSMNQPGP
experimental_details: ALK C1156Y enzymatic inhibition (HTRF)
assay_conditions: 30 μM ATP
pIC50: −log10 of the molar value.

Given item COc1cc(N2CCC3(CC2)CN(C)C3)ccc1Nc1ncc(Cl)c(Nc2ccccc2P(C)(C)=O)n1 , the value recorded as its pIC50 is 7.00 to 9.00

Given item COc1ccc(C2CC3(CCN(C)C3)C2)cc1Nc1ncc(Cl)c(Nc2ccccc2P(C)(C)=O)n1 (centres unmarked) , the value recorded as its pIC50 is 6.00 to 7.00

Given item COc1cc(C2CC3(CCN(C)CC3)C2)c(F)cc1Nc1ncc(Cl)c(Nc2ccccc2P(C)(C)=O)n1 , the value recorded as its pIC50 is 7.00 to 9.00

Given item COc1cc(N2CCC3(CCN(C)CC3)CC2)ncc1Nc1ncc(Cl)c(Nc2ccccc2P(C)(C)=O)n1 , the value recorded as its pIC50 is 7.00 to 9.00

Given item COc1cc(N2CCC3(CCN(C)CC3)CC2)ccc1Nc1ncc(Cl)c(Oc2ccccc2P(C)(C)=O)n1 , the value recorded as its pIC50 is < 6.00

Given item COc1cc(N2CCC3(CN(C)C3)C2)ccc1Nc1ncc(Cl)c(Nc2ccccc2P(C)(C)=O)n1 , the value recorded as its pIC50 is 6.00 to 7.00

Given item CN1CCC2(CCC(c3ccc(Nc4ncc(Cl)c(Nc5ccccc5P(C)(C)=O)n4)c(OC(F)F)c3)CC2)CC1 , the value recorded as its pIC50 is 7.00 to 9.00

Given item COc1ccc(C2CC3(CC(=O)N(C)C3)C2)cc1Nc1ncc(Cl)c(Nc2ccccc2P(C)(C)=O)n1 (centres unmarked) , the value recorded as its pIC50 is 6.00 to 7.00

Given item COc1cc(N2CCC3(CCN(C)CC3)CC2)ccc1Nc1ncc(C(F)(F)F)c(Nc2ccccc2P(C)(C)=O)n1 , the value recorded as its pIC50 is < 6.00

###

molecules and their reported pIC50
assay_target: ALK L1196M (Homo sapiens, UniProt Q9UM73, L1196M)
Sequence (Q9UM73 19-1620 L1196M): as the sequence (Q9UM73 19-1620 C1156Y) above, with Y1138C, L1178M counted along it
experimental_details: ALK L1196M enzymatic inhibition (HTRF)
assay_conditions: 30 μM ATP
pIC50: −log10 of the molar value.

Here are 4 molecules together with their reported answers.
Field pIC50 (system: ALK L1196M (Homo sapiens, UniProt Q9UM73, L1196M)) for entry COc1cc(C2CC3(CCN(C)CC3)C2)c(F)cc1Nc1ncc(Cl)c(Nc2ccccc2P(C)(C)=O)n1 = 7.00 to 9.00

Field pIC50 (system: ALK L1196M (Homo sapiens, UniProt Q9UM73, L1196M)) for entry COc1cc(N2CCC3(CCN(C)CC3)CC2)ccc1Nc1ncc(Cl)c(Nc2ccccc2P(C)(C)=O)n1 = 7.00 to 9.00

Field pIC50 (system: ALK L1196M (Homo sapiens, UniProt Q9UM73, L1196M)) for entry COc1cc(N2CCC3(CC2)CC(N(C)C)C3)ccc1Nc1ncc(Cl)c(Nc2ccccc2P(C)(C)=O)n1 = 7.00 to 9.00

Field pIC50 (system: ALK L1196M (Homo sapiens, UniProt Q9UM73, L1196M)) for entry COc1ccc(C2CC3(CCN(C)C3)C2)cc1Nc1ncc(Cl)c(Nc2ccccc2P(C)(C)=O)n1 (centres unmarked) = 6.00 to 7.00

***
Field pIC50 (system: ALK L1196M (Homo sapiens, UniProt Q9UM73, L1196M)) for entry COc1cc(N2CCC3(CC2)CCN(C(C)C)CC3)ccc1Nc1ncc(Cl)c(Nc2ccccc2P(C)(C)=O)n1 = 7.00 to 9.00

Field pIC50 (system: ALK L1196M (Homo sapiens, UniProt Q9UM73, L1196M)) for entry COc1cc(N2CCC3(CC2)CN(C)C3)ccc1Nc1ncc(Cl)c(Nc2ccccc2P(C)(C)=O)n1 = 7.00 to 9.00

Field pIC50 (system: ALK L1196M (Homo sapiens, UniProt Q9UM73, L1196M)) for entry COc1cc(N2CCC3(CN(C)C3)C2)ccc1Nc1ncc(Cl)c(Nc2ccccc2P(C)(C)=O)n1 = 6.00 to 7.00

###

# UniProt:Q9UM73: IC50 values follow

Field IC50 (system: UniProt:Q9UM73) for entry COc1cc(N2CCC3(CCN(C)CC3)CC2)ccc1Nc1ncc(Cl)c(N(C)c2ccccc2P(C)(C)=O)n1 = > 1000 nM

Field IC50 (system: UniProt:Q9UM73) for entry COc1cc(N2CCC3(CN(C)C3)C2)ccc1Nc1ncc(Cl)c(Nc2ccccc2P(C)(C)=O)n1 = 1 to 100 nM

Field IC50 (system: UniProt:Q9UM73) for entry COc1ccc(C2CC3(CC(=O)N(C)C3)C2)cc1Nc1ncc(Cl)c(Nc2ccccc2P(C)(C)=O)n1 (stereo not shown) = 101 to 1000 nM

Field IC50 (system: UniProt:Q9UM73) for entry COc1cc(N2CCC3(CCN(C)CC3)CC2)ccc1Nc1ncc(Cl)c(Nc2ccccc2P(C)(C)=O)n1 = 1 to 100 nM

Field IC50 (system: UniProt:Q9UM73) for entry COc1cc(N2CCC3(CC2)CCN(C(C)C)CC3)ccc1Nc1ncc(Cl)c(Nc2ccccc2P(C)(C)=O)n1 = 1 to 100 nM

Field IC50 (system: UniProt:Q9UM73) for entry COc1cc(N2CCC3(CCN(C)CC3)CC2)ncc1Nc1ncc(Cl)c(Nc2ccccc2P(C)(C)=O)n1 = 1 to 100 nM

***
Field IC50 (system: UniProt:Q9UM73) for entry COc1cc(C2CC3(CCN(C)CC3)C2)c(F)cc1Nc1ncc(Cl)c(Nc2ccccc2P(C)(C)=O)n1 = 1 to 100 nM

###

assay_target: EGFR T790M/L858R (Homo sapiens, UniProt P00533, L858R/T790M)
Sequence (P00533 25-1210 T790M/L858R): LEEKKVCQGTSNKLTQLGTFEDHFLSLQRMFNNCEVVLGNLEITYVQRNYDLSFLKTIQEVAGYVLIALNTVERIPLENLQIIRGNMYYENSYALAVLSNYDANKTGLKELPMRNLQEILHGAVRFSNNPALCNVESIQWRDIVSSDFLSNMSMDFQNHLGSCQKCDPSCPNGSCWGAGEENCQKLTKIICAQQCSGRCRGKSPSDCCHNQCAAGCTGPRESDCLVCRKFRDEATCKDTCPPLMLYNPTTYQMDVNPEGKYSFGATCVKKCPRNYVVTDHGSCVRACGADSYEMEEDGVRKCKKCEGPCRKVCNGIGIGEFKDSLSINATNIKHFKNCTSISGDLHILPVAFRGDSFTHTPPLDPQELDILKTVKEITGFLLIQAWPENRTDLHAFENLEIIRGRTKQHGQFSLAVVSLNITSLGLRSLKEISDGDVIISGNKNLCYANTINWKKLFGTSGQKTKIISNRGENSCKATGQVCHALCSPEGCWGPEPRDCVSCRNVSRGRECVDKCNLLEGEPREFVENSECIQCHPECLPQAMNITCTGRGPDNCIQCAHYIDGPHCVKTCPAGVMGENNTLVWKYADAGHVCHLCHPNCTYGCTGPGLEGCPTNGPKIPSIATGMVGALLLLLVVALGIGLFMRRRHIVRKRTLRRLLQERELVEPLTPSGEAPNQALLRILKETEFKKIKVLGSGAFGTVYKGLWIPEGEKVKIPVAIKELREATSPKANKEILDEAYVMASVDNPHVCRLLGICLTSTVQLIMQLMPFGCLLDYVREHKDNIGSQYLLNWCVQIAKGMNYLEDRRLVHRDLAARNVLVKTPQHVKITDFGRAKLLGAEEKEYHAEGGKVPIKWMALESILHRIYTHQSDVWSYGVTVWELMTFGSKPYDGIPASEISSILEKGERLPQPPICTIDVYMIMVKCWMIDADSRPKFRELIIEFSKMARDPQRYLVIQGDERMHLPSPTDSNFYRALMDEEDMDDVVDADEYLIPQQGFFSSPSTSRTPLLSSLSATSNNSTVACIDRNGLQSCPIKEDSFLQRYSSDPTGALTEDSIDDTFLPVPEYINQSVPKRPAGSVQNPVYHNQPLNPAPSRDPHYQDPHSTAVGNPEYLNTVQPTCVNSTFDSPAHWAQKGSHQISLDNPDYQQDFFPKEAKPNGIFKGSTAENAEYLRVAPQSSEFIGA
experimental_details: EGFR T790M/L858R enzymatic inhibition (HTRF)
assay_conditions: 20 μM ATP
pIC50: −log10 of the molar value.
compounds and their reported pIC50

Here are 5 compounds together with their reported answers.
Given item COc1cc(N2CCC3(CCN(C)CC3)CC2)ccc1Nc1ncc(Cl)c(Nc2c(F)cccc2P(C)(C)=O)n1 , the value recorded as its pIC50 is 6.00 to 7.00

Given item COc1cc(N2CCC3(CN(C)C3)C2)ccc1Nc1ncc(Cl)c(Nc2ccccc2P(C)(C)=O)n1 , the value recorded as its pIC50 is 6.00 to 7.00

Given item COc1cc(N2CCC3(CC2)CCN(C(C)C)CC3)ccc1Nc1ncc(Cl)c(Nc2ccccc2P(C)(C)=O)n1 , the value recorded as its pIC50 is 7.00 to 9.00

Given item COc1cc(N2CCC3(CCN(C)CC3)CC2)c(Br)cc1Nc1ncc(Cl)c(Nc2ccccc2P(C)(C)=O)n1 , the value recorded as its pIC50 is 7.00 to 9.00

Given item COc1cc(N2CCC3(CC2)CC(N(C)C)C3)ccc1Nc1ncc(Cl)c(Nc2ccccc2P(C)(C)=O)n1 , the value recorded as its pIC50 is 7.00 to 9.00

***
Given item COc1cc(N2CCC3(CCN(C)CC3)CC2)ccc1Nc1ncc(Cl)c(N(C)c2ccccc2P(C)(C)=O)n1 , the value recorded as its pIC50 is < 6.00

Given item CN1CCC2(CCC(c3ccc(Nc4ncc(Cl)c(Nc5ccccc5P(C)(C)=O)n4)c(OC(F)F)c3)CC2)CC1 , the value recorded as its pIC50 is 7.00 to 9.00

Given item COc1ccc(C2CC3(CCN(C)C3)C2)cc1Nc1ncc(Cl)c(Nc2ccccc2P(C)(C)=O)n1 (centres unmarked) , the value recorded as its pIC50 is 6.00 to 7.00

Given item COc1ccc(C2CC3(CC(=O)N(C)C3)C2)cc1Nc1ncc(Cl)c(Nc2ccccc2P(C)(C)=O)n1 (centres unmarked) , the value recorded as its pIC50 is 6.00 to 7.00

Given item COc1cc(N2CCC3(CCN(C)CC3)CC2)c(F)cc1Nc1ncc(Cl)c(Nc2ccccc2P(C)(C)=O)n1 , the value recorded as its pIC50 is 7.00 to 9.00

Given item COc1cc(N2CCC3(CCN(C)CC3)CC2)ncc1Nc1ncc(Cl)c(Nc2ccccc2P(C)(C)=O)n1 , the value recorded as its pIC50 is 6.00 to 7.00
